# ASSAY SYSTEM: pFAST (Halorhodospira halophila, UniProt P16113, A30V/C69G/D97P/F96I/G21E/G25R/K17N/M100R/M109L/Q41L/Q99S/S117R/S72T/T101G/V83A/Y94W/Y98T)
# Construct: engineered PYP variant; changes relative to FAST: K17N, G21E, G25R, A30V, Q41L, S72T, V83A, M95T, M109L, S117R (M95T restores T95 of PYP); N-terminal His-tag, E. coli Rosetta (DE3) pLys, Ni-NTA; FAST 14 kDa
# Sequence (P16113 1-125 with the stated changes): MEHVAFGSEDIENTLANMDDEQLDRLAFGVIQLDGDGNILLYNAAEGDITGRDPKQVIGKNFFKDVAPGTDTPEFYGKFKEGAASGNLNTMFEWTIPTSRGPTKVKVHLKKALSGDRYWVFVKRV
# TEST DESCRIPTION: fluorescence titration, one-site fit
pKd: −log10 of the molar value.
# pKd >= 7 gives label 1, anything below gives label 0

Example cases with answers are listed next.
Enquiry: I'd appreciate it if you could say whether Cc1cc(C=C2SC(=O)NC2=O)cc(C)c1O has pKd at least equal to 7.
Return: label 0

Enquiry: Say whether COc1cc(C=C2SC(=S)NC2=O)cc(OC)c1O shows pKd of 7 or more.
Return: label 1

Enquiry: Identify whether the reported pKd of the following molecule is 7 or greater: Cc1cc(C=C2OC(=O)NC2=O)ccc1O
Return: label 0

Enquiry: # bool: pKd of COc1cc(C=C2SC(O)=NC2=S)cc(OC)c1O >= 7
Return: label 1

Enquiry: Determine whether measured pKd meets or exceeds 7 for COc1cc(/C=C2\SC(=O)NC2=O)cc(OC)c1O
Return: label 0

Next:
Enquiry: API: above_or_equal(metric=pKd, cutoff=7) for item COc1cc(C=C2SC(=N)NC2=O)cc(OC)c1O
Return: label 0

Enquiry: Form field: pKd at least 7? Entry: Cc1cc(C=C2SC(=N)NC2=O)ccc1O
Return: label 0

Enquiry: Can Cc1cc(C=C2OC(=O)NC2=O)cc(C)c1O be said to have pKd at or above 7?
Return: label 0

Enquiry: Determine whether this molecule has pKd no lower than 7: Cc1cc(C=C2SC(=S)NC2=O)cc(C)c1O
Return: label 1

Enquiry: Is pKd at least 7? Consider Cc1cc(/C=C2\SC(=S)N(CC(=O)O)C2=O)cc(C)c1O
Return: label 0
